Where do these numbers come from? They come from patent US20250051277A1.

Recorded Human Plasma Prodrug (%) values for a group of compounds are listed next.
method_description: Plasma Stability Assay of Example A3, human plasma
details: 60 min; 5 μM, 37° C.; % of prodrug compound remaining
// note: answer is a bare numeric in %

Example entries and their recorded answers appear below.
smiles_code	Human Plasma Prodrug (%)
COc1ccc([C@@]23CCC(OC(=O)c4ccc(C(F)(F)F)cc4)=C[C@@H]2N(C)CC3)cc1OC	77.3
COc1ccc([C@@]23CCC(OC(=O)c4ccc(C#N)cc4)=C[C@@H]2N(C)CC3)cc1OC	42
COc1ccc([C@@]23CCC(OC(=O)c4cccc(N(C)C)c4)=C[C@@H]2N(C)CC3)cc1OC	83.0

Kindly note the recorded Human Plasma Prodrug (%) for COc1ccc([C@@]23CCC(OC(=O)C4CC4)=C[C@@H]2N(C)CC3)cc1OC , which is 20.9

Kindly note the recorded Human Plasma Prodrug (%) for COc1ccc([C@@]23CCC(OC(=O)C(C)(C)C)=C[C@@H]2N(C)CC3)cc1OC , which is 16.5

* * *

Type: physicochemical
details: DI water, 25° C., 0.5 mM; time 5 min
endpoint_name: Condition 2 Conversion (%)
// note: answer is a bare numeric in %

Example entries and their recorded answers appear below.
compound	readout_unit	result_value
COc1ccc([C@@]23CC/C(=N\NC(=O)CCC(=O)O)C[C@@H]2N(C)CC3)cc1OC	%	35
COc1ccc([C@@]23CC/C(=N/OC45CC6CC(CC(C6)C4)C5)C[C@@H]2N(C)CC3)cc1OC [Compound 274]	%	0
COc1ccc([C@@]23CCC(=NOCCON=C4CC[C@@]5(c6ccc(OC)c(OC)c6)CCN(C)[C@H]5C4)C[C@@H]2N(C)CC3)cc1OC	%	0

Moving on to another compound below.
Kindly note the recorded Condition 2 Conversion (%) for C/C=C(\C)C(=O)OC1=C[C@@H]2N(C)CC[C@]2(c2ccc(OC)c(OC)c2)CC1 , which is 0

* * *

Recorded Condition 1 Conversion (%) values for a group of compounds are listed next.
Format: physicochemical
details: SGF with pepsin, pH 1.5, 37° C., 0.5 mM; time 30 min
// note: answer is a bare numeric in %

compound	endpoint_name	result_value
COc1ccc([C@@]23CC/C(=N\NC(=O)Nc4ccc(N5CCN(C)CC5)cc4)C[C@@H]2N(C)CC3)cc1OC	Condition 1 Conversion (%)	100
COc1ccc([C@@]23CCC(=NNc4cnccn4)C[C@@H]2N(C)CC3)cc1OC	Condition 1 Conversion (%)	47.1
COc1ccc([C@]23CCN(C)[C@H]2CC2(CC3)O[C@@H]([C@@H](O)Cn3c4nc(=O)[nH]c(=O)c-4nc4cc(C)c(C)cc43)[C@@H](CO)O2)cc1OC (some centres unmarked)	Condition 1 Conversion (%)	0
COc1ccc([C@@]23CCC(=NNC(=O)c4ccc(Cl)cc4)C[C@@H]2N(C)CC3)cc1OC	Condition 1 Conversion (%)	100

Kindly note the recorded Condition 1 Conversion (%) for COc1ccc([C@@]23CCC(OC(=O)C(c4ccccc4)c4ccccc4)=C[C@@H]2N(C)CC3)cc1OC , which is 0

Kindly note the recorded Condition 1 Conversion (%) for COc1ccc([C@@]23CCC(OC(=O)c4ccccc4C)=C[C@@H]2N(C)CC3)cc1OC , which is 0

Kindly note the recorded Condition 1 Conversion (%) for COc1ccc([C@@]23CCC(=NNC(=O)Nc4ccc(S(C)(=O)=O)cc4)C[C@@H]2N(C)CC3)cc1OC , which is 88.6

Kindly note the recorded Condition 1 Conversion (%) for COc1ccc([C@@]23CCC(=NOCC(=O)O)C[C@@H]2N(C)CC3)cc1OC , which is 0

Kindly note the recorded Condition 1 Conversion (%) for CCCC1CO[C@@]2(CC[C@@]3(c4ccc(OC)c(OC)c4)CCN(C)C3C2)O1 (some centres unmarked) , which is 0

* * *

Recorded Mouse Plasma Prodrug (%) values for a group of compounds are listed next.
method_description: Plasma Stability Assay of Example A3, mouse plasma
details: 15 min; 5 μM, 37° C.; % of prodrug compound remaining
// note: answer is a bare numeric in %

Example entries and their recorded answers appear below.
compound	Mouse Plasma Prodrug (%)
COc1ccc([C@@]23CCC(OC(=O)c4ccc(C(F)(F)F)cc4)=C[C@@H]2N(C)CC3)cc1OC [Compound 310]	0.4
COc1ccc([C@@]23CCC(OC(=O)c4cccc(C(C)(C)C)c4)=C[C@@H]2N(C)CC3)cc1OC [Compound 375]	11
COc1ccc([C@@]23CCC(OC(=O)c4c(C)cccc4C)=C[C@@H]2N(C)CC3)cc1OC [Compound 372]	92

Moving on to another compound below.
Kindly note the recorded Mouse Plasma Prodrug (%) for COc1ccc([C@@]23CCC(OC(=O)C(c4ccccc4)c4ccccc4)=C[C@@H]2N(C)CC3)cc1OC [Compound 306] , which is 6.2

* * *

details: 60 min, 5 μM
Hi! Could you tag entries with Mouse Plasma Compound 001 (%) below 60% as Fulfilled, and those at or above as Not fulfilled? Much appreciated.

Worked examples follow.
smiles_code	group
COc1ccc([C@@]23CCC(OC(=O)C(C)(C)C)=C[C@@H]2N(C)CC3)cc1OC	Not fulfilled
COc1ccc([C@@]23CCC(OC(=O)c4cccc(C(C)(C)C)c4)=C[C@@H]2N(C)CC3)cc1OC	Fulfilled
C/C=C(\C)C(=O)OC1=C[C@@H]2N(C)CC[C@]2(c2ccc(OC)c(OC)c2)CC1	Fulfilled

Req: Lab log: compare recorded Mouse Plasma Compound 001 (%) with 60%; is it strictly lower for COc1ccc([C@@]23CCC(OC(=O)c4ccc(C#N)cc4)=C[C@@H]2N(C)CC3)cc1OC ?
Resp: Fulfilled

Req: Lab log: compare recorded Mouse Plasma Compound 001 (%) with 60%; is it strictly lower for COc1ccc([C@@]23CCC(OC(=O)C4CC4)=C[C@@H]2N(C)CC3)cc1OC ?
Resp: Not fulfilled

Req: Lab log: compare recorded Mouse Plasma Compound 001 (%) with 60%; is it strictly lower for COc1ccc([C@@]23CCC(OC(=O)c4cccc(N(C)C)c4)=C[C@@H]2N(C)CC3)cc1OC ?
Resp: Not fulfilled

* * *

Recorded Condition 2 Conversion (%) values for a group of molecules are listed next.
Type: physicochemical
details: DI water, 25° C., 0.5 mM; time 1 h

Example entries and their recorded answers appear below.
molecule	Condition 2 Conversion (%)
COc1ccc([C@@]23CCC(=NOCCON=C4CC[C@@]5(c6ccc(OC)c(OC)c6)CCN(C)[C@H]5C4)C[C@@H]2N(C)CC3)cc1OC	0%
COc1ccc([C@@]23CCC(=NOCCC45CC6CC(CC(C6)C4)C5)C[C@@H]2N(C)CC3)cc1OC	0%
COc1ccc([C@@]23CCC(=NNCc4cccc(C)c4)C[C@@H]2N(C)CC3)cc1OC	11.92%
COc1ccc([C@@]23CCC(OC(=O)c4ccc(N(C)C)cc4)=C[C@@H]2N(C)CC3)cc1OC	0%
COc1ccc([C@@]23CCC(=NNC(=O)COc4ccccc4)C[C@@H]2N(C)CC3)cc1OC	18.5%

Kindly note the recorded Condition 2 Conversion (%) for COc1ccc([C@@]23CC/C(=N\NC(=O)Nc4ccccc4Cl)C[C@@H]2N(C)CC3)cc1OC , which is 0%

Kindly note the recorded Condition 2 Conversion (%) for COc1ccc([C@@]23CC/C(=N\OC(C)(C)OC)C[C@@H]2N(C)CC3)cc1OC , which is 0%

Kindly note the recorded Condition 2 Conversion (%) for COc1ccc([C@@]23CCC(=NNC(=O)Nc4ccc(S(C)(=O)=O)cc4)C[C@@H]2N(C)CC3)cc1OC , which is 2.4%

Kindly note the recorded Condition 2 Conversion (%) for COc1ccc([C@@]23CCC(=NNC(=O)CC(CC(=O)O)CC(C)C)C[C@@H]2N(C)CC3)cc1OC (some centres unmarked) , which is 40.8%

Kindly note the recorded Condition 2 Conversion (%) for COc1ccc([C@@]23CCC(=NOCC(=O)O)C[C@@H]2N(C)CC3)cc1OC , which is 0%

* * *

details: 0.5 h, 10 μM
endpoint_name: Prodrug (%) remaining, Rat Plasma
// note: answer is a bare numeric in %

Example entries and their recorded answers appear below.
compound	endpoint_name	result_value
CCCCCC(C)C(=O)OC1=C[C@@H]2N(C)CC[C@]2(c2ccc(OC)c(OC)c2)CC1 (stereo partly drawn) [Compound 400]	Prodrug (%) remaining, Rat Plasma	0.6
CCC(C)C(=O)OC1=C[C@@H]2N(C)CC[C@]2(c2ccc(OC)c(OC)c2)CC1 (stereo partly drawn) [Compound 425]	Prodrug (%) remaining, Rat Plasma	0.1

Moving on to another compound below.
Kindly note the recorded Prodrug (%) remaining, Rat Plasma for COc1ccc([C@@]23CCC(OC(=O)CCC(C)C)=C[C@@H]2N(C)CC3)cc1OC [Compound 399] , which is 0.0

* * *

method_description: Plasma Stability Assay of Example A3, mouse plasma
details: 0 min; 5 μM, 37° C.; % of prodrug compound remaining
Recorded Mouse Plasma Prodrug (%) values for a group of compounds are listed next.
Answer format: value, then unit.

compound	result_value
COc1ccc([C@@]23CCC(OC(=O)c4ccc(C(F)(F)F)cc4)=C[C@@H]2N(C)CC3)cc1OC	100.0%
C/C=C(\C)C(=O)OC1=C[C@@H]2N(C)CC[C@]2(c2ccc(OC)c(OC)c2)CC1	100.0%
COc1ccc([C@@]23CCC(OC(=O)c4cccc(C(C)(C)C)c4)=C[C@@H]2N(C)CC3)cc1OC	100%

Kindly note the recorded Mouse Plasma Prodrug (%) for COc1ccc([C@@]23CCC(OC(=O)c4ccc(C#N)cc4)=C[C@@H]2N(C)CC3)cc1OC , which is 100%

Kindly note the recorded Mouse Plasma Prodrug (%) for COc1ccc([C@@]23CCC(=O)C[C@@H]2N(C)CC3)cc1OC [Compound 001, mesembrine, reference compound] , which is 100.0%

Kindly note the recorded Mouse Plasma Prodrug (%) for COc1ccc([C@@]23CCC(OC(=O)C4CC4)=C[C@@H]2N(C)CC3)cc1OC , which is 100.0%

Kindly note the recorded Mouse Plasma Prodrug (%) for COc1ccc([C@@]23CCC(OC(=O)c4ccc(C(C)C)cc4)=C[C@@H]2N(C)CC3)cc1OC , which is 100%
